# Tested on: C. elegans
# PROCEDURE TEXT: C. elegans lifespan assays (liquid and plate)
# Assay type: in vivo, Caenorhabditis elegans
# MEASUREMENT PARAMETERS: Caenorhabditis elegans, 60 μM, in liquid, wild type, with FuDR, 2.5 × 10^9 bacteria/ml; read-out: relative change of mean lifespan vs control, Trial 2
Everything with ILS at 60 µM lower than 10% is label 0; everything else, including exactly 10%, is label 1.

Hi, just wondering whether "N=C1S/C(=C\c2cn(-c3ccccc3)nc2-c2cccs2)C(=O)N1c1nccs1" shows ILS at 60 µM of 10% or higher.
label 1

Field entry: "NS(=O)(=O)c1ccc(NC(=O)c2ccc([N+](=O)[O-])o2)cc1"
label 0

Field entry: "CCCC(=O)Nc1ccc(-c2cn3cccc(C)c3n2)cc1"
label 0

Field entry: "COC(=O)CCc1sc2c(c1[N+](=O)[O-])NC(=O)CCC2"
label 0

Field entry: "O=C(Nc1cccc(Cl)c1)c1ccc([N+](=O)[O-])o1"
label 0

Field entry: "O=C(/C=C/c1cn(-c2ccccc2)nc1-c1cccnc1)c1ccccc1"
label 0

Field entry: "Cc1cc(C)c(C(=O)/C=C/c2ccccc2F)c(O)n1"
label 1

Field entry: "O=C(Nc1cccc(C(F)(F)F)c1)c1ccc([N+](=O)[O-])o1"
label 0

Field entry: "Oc1ncnc2sc3c(c12)CCC3"
label 0
